TEST TARGET: FLT3(D835Y) (Homo sapiens, UniProt P36888, D835Y)
METHOD NOTES: Off-target kinase panel, ZLYTE: FLT3(D835Y)
Format: biochemical
CONDITION DETAILS: read-out: Estimated IC50 (uM) FLT3(D835Y)
TEST READOUT: IC50 (µM)
Answers are plain numbers, in µM.

Item O=C1NC(=O)C2(CCN(c3cc(Cl)cc4[nH]ncc34)CC2)N1 [CC-1] has what recorded IC50? 1.5

----------
TEST TARGET: CDK9 (Cyclin T1) (Homo sapiens, UniProt P50750)
Sequence (P50750 whole entry): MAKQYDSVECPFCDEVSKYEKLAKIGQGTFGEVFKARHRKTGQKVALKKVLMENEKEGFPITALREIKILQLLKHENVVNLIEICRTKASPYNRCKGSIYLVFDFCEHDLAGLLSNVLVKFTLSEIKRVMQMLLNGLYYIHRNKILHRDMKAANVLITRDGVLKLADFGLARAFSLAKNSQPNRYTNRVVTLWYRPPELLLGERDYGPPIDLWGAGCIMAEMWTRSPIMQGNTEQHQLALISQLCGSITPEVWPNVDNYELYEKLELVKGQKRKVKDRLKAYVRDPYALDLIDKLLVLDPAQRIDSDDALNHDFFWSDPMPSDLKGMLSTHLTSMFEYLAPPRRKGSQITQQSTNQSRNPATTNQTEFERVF
Sequence (O60563 whole entry partner): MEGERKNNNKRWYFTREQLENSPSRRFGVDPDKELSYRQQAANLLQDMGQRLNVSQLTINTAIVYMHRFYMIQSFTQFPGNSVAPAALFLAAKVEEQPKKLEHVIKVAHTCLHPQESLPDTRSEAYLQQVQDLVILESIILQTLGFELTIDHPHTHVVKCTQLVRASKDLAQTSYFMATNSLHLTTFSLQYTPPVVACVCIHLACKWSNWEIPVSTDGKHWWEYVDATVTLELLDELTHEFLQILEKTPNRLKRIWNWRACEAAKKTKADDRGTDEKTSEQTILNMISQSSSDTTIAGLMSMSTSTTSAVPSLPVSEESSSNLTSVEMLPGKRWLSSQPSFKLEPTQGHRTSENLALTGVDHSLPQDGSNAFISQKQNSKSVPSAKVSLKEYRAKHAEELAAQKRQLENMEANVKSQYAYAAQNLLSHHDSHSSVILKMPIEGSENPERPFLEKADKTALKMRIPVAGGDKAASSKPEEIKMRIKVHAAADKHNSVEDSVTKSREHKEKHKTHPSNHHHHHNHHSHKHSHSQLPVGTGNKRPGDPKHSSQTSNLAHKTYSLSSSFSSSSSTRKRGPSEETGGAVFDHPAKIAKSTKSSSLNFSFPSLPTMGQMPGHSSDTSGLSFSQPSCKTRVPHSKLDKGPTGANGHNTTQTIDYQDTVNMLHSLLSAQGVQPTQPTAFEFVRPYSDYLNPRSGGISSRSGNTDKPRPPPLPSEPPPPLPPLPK
METHOD NOTES: Off-target kinase panel, ADAPTA: CDK9 (Cyclin T1)
Format: biochemical
CONDITION DETAILS: read-out: Estimated IC50 (uM) CDK9 (Cyclin T1)
TEST READOUT: IC50 (µM)
Give bare numbers, in µM.

Item O=C1NC(=O)C2(CCN(c3cc(Cl)cc4[nH]ncc34)CC2)N1 has what recorded IC50? 0.15
